Sourced from patent US20170051149A1

Test details: thermal reversion halflife of spontaneous cis->trans isomerisation
Type: physicochemical
Experimental setup: PBS pH = 7.4, 20% MeCN
Method: Finally, trends in τ were ascertained by establishing the PSS at λstrong, then turning off the light source at time t0, and measuring A(λstrong, t) over time. Data were acquired for half an hour, or else the first three halflives (whichever was the shorter period), then fitted to the equation: A(λstrong,t)=A(λstrong,dark)−[A(λstrong,dark)−A(λstrong,t0)]×e^−kt […] Thermal reversion times were measured as described above. […]
Parameter τ, reversion time: see the listing below.
The response must be a number in min with no trailing unit.

Previously resolved entries follow.
Req: Requested field: τ, reversion time. Item: COc1ccc(N=Nc2cc(OC)c(OC)c(OC)c2)cc1Br
Resp: 129

Req: Consider the compound COc1ccc(N=Nc2cc(OC)c(OC)c(OC)c2)c(NC(C)=O)c1 and give its measured τ, reversion time.
Resp: 8.4

Req: Please look up its τ, reversion time: COc1ccc(N=Nc2cc(OC)c(OC)c(OC)c2)c(F)c1F
Resp: 134

Req: Bench note: what τ, reversion time did COc1ccc(N=Nc2cc(OC)c(OC)c(OC)c2)c(F)c1 show?
Resp: 119

Req: Record request: τ, reversion time value, item COc1ccc(N=Nc2cc(OC)c(OC)c(OC)c2)cc1 [I.6, reference compound]
Resp: 83

Req: Record request: τ, reversion time value, item COc1ccc(N=Nc2cc(OC)c(OC)c(OC)c2)cc1C=O
Resp: 248

Further cases:
Req: For the compound COc1cc(N=Nc2ccc(OC)c([N+](=O)[O-])c2F)cc(OC)c1OC , what τ, reversion time is on record?
Resp: 50

Req: May I ask what τ, reversion time has been recorded for COc1ccc(N=Nc2cc(OC)c(OC)c(OC)c2)c(OC)c1 ?
Resp: 28

Req: Return reported τ, reversion time; argument: COc1cc(N=Nc2ccc(OC)c3ncccc23)cc(OC)c1OC
Resp: 3.3

Req: What τ, reversion time value was documented for this compound, CCN(CC)c1ccc2c(-c3ccccc3C(=O)N3CCN(CCCOc4c(N=Nc5cc(OC)c(OC)c(OC)c5)ccc(OC)c4C)CC3)c3ccc(=[N+](CC)CC)cc-3oc2c1.CCN(CC)c1ccc2c(-c3ccccc3C(=O)N3CCN(CCCOc4c(N=Nc5cc(OC)c(OC)c(OC)c5)ccc(OC)c4C)CC3)c3ccc(=[N+](CC)CC)cc-3oc2c1.O=C[O-].O=C[O-] ?
Resp: 16.2

Req: Request the reported τ, reversion time associated with COc1ccc(N=Nc2cc(OC)c(OC)c(OC)c2)cn1
Resp: 270

Req: Which τ, reversion time value is on record for COc1ccc(N=Nc2cc(OC)c(OC)c(OC)c2)cc1OC ?
Resp: 40

Req: Find the recorded τ, reversion time belonging to COc1ccc(N=Nc2cc(OC)c(OC)c(OC)c2)cc1F and report it.
Resp: 61
